Biological target: human RNase L (Homo sapiens, UniProt Q05823)
Construct: full-length (741 a.a.) recombinant human RNase L, GST-RNase L fusion protein
Sequence (Q05823 1-741): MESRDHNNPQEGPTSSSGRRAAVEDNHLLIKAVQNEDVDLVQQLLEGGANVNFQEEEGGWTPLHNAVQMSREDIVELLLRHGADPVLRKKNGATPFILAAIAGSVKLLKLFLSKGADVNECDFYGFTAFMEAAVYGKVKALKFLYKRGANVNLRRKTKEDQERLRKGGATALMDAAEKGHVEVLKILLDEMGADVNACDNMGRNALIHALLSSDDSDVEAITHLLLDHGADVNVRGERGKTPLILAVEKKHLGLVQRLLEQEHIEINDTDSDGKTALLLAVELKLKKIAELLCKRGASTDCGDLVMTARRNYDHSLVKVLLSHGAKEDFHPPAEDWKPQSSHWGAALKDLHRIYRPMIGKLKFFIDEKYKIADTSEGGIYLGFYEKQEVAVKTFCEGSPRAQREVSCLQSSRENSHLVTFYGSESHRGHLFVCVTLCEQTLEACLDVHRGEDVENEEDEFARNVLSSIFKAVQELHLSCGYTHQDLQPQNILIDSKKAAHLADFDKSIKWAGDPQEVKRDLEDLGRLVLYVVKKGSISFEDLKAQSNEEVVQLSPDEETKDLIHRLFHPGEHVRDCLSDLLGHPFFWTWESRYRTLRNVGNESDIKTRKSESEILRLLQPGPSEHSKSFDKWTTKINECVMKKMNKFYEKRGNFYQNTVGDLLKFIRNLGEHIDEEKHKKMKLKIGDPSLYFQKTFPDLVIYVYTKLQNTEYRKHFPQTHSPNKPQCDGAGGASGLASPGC
Assay: intrinsic fluorescence quenching titration (Hill fit); also noncompetitive inhibition of purified GST-RNase L RNA degradation with […]-5A, Ki […], biphasic dose response
measurementKind: Kd (nM)
# output: bare number, implied unit nM

Find Kd (human RNase L (Homo sapiens, UniProt Q05823)) for the entry COc1cc(/C=C/C(=O)CC(=O)/C=C/c2ccc(O)c(OC)c2)ccc1O [curcumin]
397
